Would you kindly list % Inhibition for each of these compounds?
System: P. falciparum stage V gametocytes
Design: BacTiter-Glo ATP luminescence viability of purified stage V gametocytes in 384-well plates, per cent inhibition versus DMSO
Conditions: 48 h, 5 µM; inhibitor
Out of some 13,000 compounds screened, about 3,200 (25%) showed an effect of 50% or more. This is one part of the list.
Answer format: numeric, % implied, no suffix.

Need % Inhibition of CNC(=O)c1[nH]c(-c2ccccc2)nc1NC(C)=O [TCMDC-131315] , thanks.
-0.1444

Would you mind telling me what % Inhibition value was observed for COCc1cc(C)nc2sc(C(=O)Nc3cc(C(C)(C)C)ccc3O)c(N)c12 [TCMDC-125131] ?
1.168

Return reported % Inhibition; argument: COc1ccc(CCn2c(=N)c(C(=O)NCc3cccnc3)cc3c(=O)n4ccccc4nc32)cc1 [TCMDC-124471]
25.4

Query (compound): O=C(Nc1ccc(-c2nc3ccccc3[nH]2)cc1)c1cnc(Cl)c(Cl)c1 [TCMDC-125109] ; field requested: % Inhibition
-47.86

Please give the measured % Inhibition for this compound: CCOCCCn1c(=N)c(C(=O)NCc2ccc(OC)cc2)cc2c(=O)n3cccc(C)c3nc21 [TCMDC-125406]
75.07

Can you look up the measured % Inhibition of Cc1cccn2c(=O)c3cc(C(=O)NCCc4ccccc4)c(=N)n(CCCOC(C)C)c3nc12 [TCMDC-125410] for me?
68.18

Field request: % Inhibition | item: CNCC(C)(C)c1nc(-c2ccc(Cl)c(O)c2)c(-c2ccncc2)[nH]1 [TCMDC-140762]
-81.65

Need % Inhibition of CCCCn1c(=N)c(C(=O)NCc2cccnc2)cc2c(=O)n3cccc(C)c3nc21 [TCMDC-124382] , thanks.
12.6

Origin of measurements: paper PMC4552634
